Here the recorded pEC50 is given for each entry.
# MEASURED TARGET: 5-HT2C receptor (Homo sapiens, UniProt P28335)
# Construct: expressed in transfected cells; host or cells: HEK293T
# Sequence (P28335 33-458): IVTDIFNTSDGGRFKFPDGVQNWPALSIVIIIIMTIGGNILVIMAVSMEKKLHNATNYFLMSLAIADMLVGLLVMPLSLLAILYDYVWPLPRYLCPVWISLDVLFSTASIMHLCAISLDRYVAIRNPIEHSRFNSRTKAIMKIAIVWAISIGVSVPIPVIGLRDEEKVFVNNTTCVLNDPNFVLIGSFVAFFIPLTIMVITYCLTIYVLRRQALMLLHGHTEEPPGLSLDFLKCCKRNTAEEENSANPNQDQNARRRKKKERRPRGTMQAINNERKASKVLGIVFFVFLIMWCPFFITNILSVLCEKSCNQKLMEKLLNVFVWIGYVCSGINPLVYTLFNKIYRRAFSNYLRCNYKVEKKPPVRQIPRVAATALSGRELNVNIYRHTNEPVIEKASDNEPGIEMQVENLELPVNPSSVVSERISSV
# METHOD: cell-based
# Type: cell-based
# EXPERIMENTAL CONTEXT: Table 2; at least three replicate trials; read-out: 5-HT2C BRET EC50
pEC50: −log10 of the molar value.
READOUT KIND: pEC50

INSERT INTO measurements (molecule, value_measured) VALUES
  ('N#Cc1cc(O)c(CCNCc2ccccc2O)cc1F [Cpd #129]', 7.17),
  ('CSc1ccccc1CNCCc1ccc(C(F)F)cc1O [Cpd #123]', 7.52),
  ('Oc1cc(C(F)(F)F)ccc1CCNCc1ccccc1O [Cpd #116]', 8.77),
  ('COc1cc(C#N)ccc1CCNCC1CC1 [Cpd #133]', 4.46),
  ('COc1ccc(CCNCc2ccccc2O)c(OC)c1 [Cpd #96, reference compound]', 8.14),
  ('COc1cc(Cc2ccccc2)ccc1CCNCc1ccccc1O [Cpd #126]', 8.42),
  ('Cc1ccc(CCNCc2cccc3c2OCO3)c(O)c1 [Cpd #132]', 6.11),
  ('COc1cc(C#N)ccc1CCNCc1c(Cl)cccc1Cl [Cpd #58]', 5.66),
  ('CSc1ccc(CCNCc2ccccc2O)c(O)c1 [Cpd #122]', 8.44),
  ('CCCCCc1ccc(CCNCc2ccccc2O)c(OC)c1 [Cpd #125]', 7.25),
  ('COc1cc(C#N)ccc1CCNCc1ccccc1SC [Cpd #108]', 7.80),
  ('CSc1ccccc1CNCCCc1ccc(C#N)cc1O [Cpd #136]', 6.39),
  ('COc1cc(C#N)ccc1CCNCc1ccccc1Cl [Cpd #12]', 5.92),
  ('COc1cc(C#N)ccc1CCNCc1cccc2ncn(C)c12 [Cpd #73]', 10.40),
  ('COc1cc(C#N)ccc1CCNCc1cccc2c1CCO2 [Cpd #63]', 5.68),
  ('COc1cc(C#N)ccc1CCNCc1cccc2occc12 [Cpd #64]', 6.45),
  ('Oc1ccccc1CNCC(O)c1ccc(C(F)(F)F)cc1OCc1ccccc1 (stereo not shown) [Reference Compound 1a, reference compound]', 6.49),
  ('COc1ccc(CNCCc2ccc(C#N)cc2OC)cc1 [Cpd #29]', 6.03),
  ('COc1cc2c(cc1CCNCc1ccccc1O)CCO2 [Cpd #141]', 8.80),
  ('CSc1ccccc1CNCCc1ccc(C#N)cc1O [Cpd #109]', 6.60),
  ('COc1cc(C#N)c(F)cc1CCNCc1ccccc1O [Cpd #117]', 7.39),
  ('COc1ccc(CCNCc2ccccc2SC)c(O)c1 [Cpd #119]', 6.94);
